Consider the following binders; for each one, report its interaction score.
# measurement-target: T1, 4H754-bN
# T1 chain: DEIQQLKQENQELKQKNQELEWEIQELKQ
# experiment: two-hybrid library CCNG1;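 note: natural log of median RNA to DNA barcode read ratio; higher means stronger binding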
# print the numeric value only

interaction score measured on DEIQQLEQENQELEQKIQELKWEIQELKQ [4H170-bN] = -0.104

interaction score measured on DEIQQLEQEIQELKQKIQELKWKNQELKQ [4H112-bN] = -0.189

interaction score measured on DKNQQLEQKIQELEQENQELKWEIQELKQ [4H3354-bN] = -0.289

interaction score measured on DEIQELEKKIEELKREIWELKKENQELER [4H331-bH] = -1.25
